These measurements were taken from the supplement of paper PMC10567573.

B1: NEK8 (parent)
chain: VVGTPCYISPELCEGKPYNQKSDI

Variants of: B1
EXPERIMENT_SUMMARY: protein stability index of a GFP-peptide fusion (GPS, HEK-293T) (PSI 1-6); higher = more stable;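 note: lentivirally expressed fusions sorted by FACS into six bins by GFP to DsRed ratio, PSI derived from sequencing read proportions per bin multiplied by bin number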
ASSAY_SETUP: c terminus: a fixed tail appended
MEASURED_METRIC: protein stability index
Returns: the value as a bare number; no unit string appended.

{"VARIANT_NAME": "P5G", "protein stability index": 3.27}

Please indicate protein stability index recorded for `P17Q`
2.77

Please indicate protein stability index recorded for `N19L`
2.21

Please indicate protein stability index recorded for `S22A`
2.48

Please indicate protein stability index recorded for `S22F`
2.5

Please indicate protein stability index recorded for `D23Q`
2.36

Please indicate protein stability index recorded for `G3A`
2.31
